Ref: patent US20170165286A1

test: Phase 1 study in subjects with hepatic impairment: pharmacokinetics and protein binding
Type: in vivo, humans
experimental_parameters: human, plasma, severe hepatic impairment

compound	half-life [h]
CC[C@H]1OC(=O)[C@@](C)(F)C(=O)[C@H](C)[C@@H](O[C@@H]2O[C@H](C)C[C@H](N(C)C)[C@H]2O)[C@](C)(OC)C[C@@H](C)C(=O)[C@H](C)[C@H]2N(CCCCn3cc(-c4cccc(N)c4)nn3)C(=O)O[C@]12C [solithromycin]	15.7

----------
test: Phase 1 study in subjects with hepatic impairment: pharmacokinetics and protein binding
Type: in vivo, humans
experimental_parameters: human, plasma, mild hepatic impairment

item_smiles	measurement_unit	half-life
CC[C@H]1OC(=O)[C@@](C)(F)C(=O)[C@H](C)[C@@H](O[C@@H]2O[C@H](C)C[C@H](N(C)C)[C@H]2O)[C@](C)(OC)C[C@@H](C)C(=O)[C@H](C)[C@H]2N(CCCCn3cc(-c4cccc(N)c4)nn3)C(=O)O[C@]12C	h	10.2

----------
test: Phase 1 study in subjects with hepatic impairment: pharmacokinetics and protein binding
Assay type: in vivo, humans
experimental_parameters: human, plasma, Day 5; healthy control subjects; read-out: AUC0-tau (Reference Group)
measured_attribute: AUC (ng·h/mL)

compound	measurement_unit	observed_measurement
CC[C@H]1OC(=O)[C@@](C)(F)C(=O)[C@H](C)[C@@H](O[C@@H]2O[C@H](C)C[C@H](N(C)C)[C@H]2O)[C@](C)(OC)C[C@@H](C)C(=O)[C@H](C)[C@H]2N(CCCCn3cc(-c4cccc(N)c4)nn3)C(=O)O[C@]12C [solithromycin]	ng·h/mL	10500

----------
test: Phase 1 study in subjects with hepatic impairment: pharmacokinetics and protein binding
Format: in vivo, humans
Design: concentration or dose not given beside the values
experimental_parameters: human, plasma, Day 5; healthy control subjects; read-out: AUC0-t (Reference Group)

item_smiles	AUC(0-t), ng·h/mL
CC[C@H]1OC(=O)[C@@](C)(F)C(=O)[C@H](C)[C@@H](O[C@@H]2O[C@H](C)C[C@H](N(C)C)[C@H]2O)[C@](C)(OC)C[C@@H](C)C(=O)[C@H](C)[C@H]2N(CCCCn3cc(-c4cccc(N)c4)nn3)C(=O)O[C@]12C	7550

----------
test: Phase 1 study in subjects with hepatic impairment: pharmacokinetics and protein binding
Format: in vivo, humans
experimental_parameters: human, plasma, Day 5; mild hepatic impairment; 800 mg Day 1, 400 mg Days 2-5; read-out: Cmax (Test Group)

item_smiles	measurement_unit	Cmax
CC[C@H]1OC(=O)[C@@](C)(F)C(=O)[C@H](C)[C@@H](O[C@@H]2O[C@H](C)C[C@H](N(C)C)[C@H]2O)[C@](C)(OC)C[C@@H](C)C(=O)[C@H](C)[C@H]2N(CCCCn3cc(-c4cccc(N)c4)nn3)C(=O)O[C@]12C	ng/mL	786

----------
test: Phase 1 study in subjects with hepatic impairment: pharmacokinetics and protein binding
Type: in vivo, humans
experimental_parameters: human, plasma, Day 5; moderate hepatic impairment; read-out: AUC0-tau (Test Group)

item_smiles	AUC
CC[C@H]1OC(=O)[C@@](C)(F)C(=O)[C@H](C)[C@@H](O[C@@H]2O[C@H](C)C[C@H](N(C)C)[C@H]2O)[C@](C)(OC)C[C@@H](C)C(=O)[C@H](C)[C@H]2N(CCCCn3cc(-c4cccc(N)c4)nn3)C(=O)O[C@]12C	7510 ng·h/mL
